- TARGET_DESC: T1, human CCR8 (human, UniProt P51685 1-355)
- T1 construct: Native CCR8 on human PBMC (CCR8+ CD3+ or CCR8+ CD4+ lymphocytes); also called chemokine (C-C motif) receptor 8
- ASSAY_TEXT: flow blocking, PBMC CCR8+CD4+; competitor PE-AB1
In this section we review reported % Blocking values for a set of binders.

Look over these answered cases.
AB10 (antibody, V domains shown, Hybridoma monoclonal; also called antibody 10; clone 10) VH: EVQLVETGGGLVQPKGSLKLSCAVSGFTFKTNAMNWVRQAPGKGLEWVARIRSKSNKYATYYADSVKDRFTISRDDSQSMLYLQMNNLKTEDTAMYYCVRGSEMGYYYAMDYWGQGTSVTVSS VL: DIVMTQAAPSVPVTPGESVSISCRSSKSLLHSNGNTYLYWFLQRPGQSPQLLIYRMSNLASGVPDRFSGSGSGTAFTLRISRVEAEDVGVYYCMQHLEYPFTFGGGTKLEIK :: -47.1%
AB2 (antibody, V domains shown, Hybridoma monoclonal; Same VH/VL entries as AB1; also called antibody 2; clone 2) VH: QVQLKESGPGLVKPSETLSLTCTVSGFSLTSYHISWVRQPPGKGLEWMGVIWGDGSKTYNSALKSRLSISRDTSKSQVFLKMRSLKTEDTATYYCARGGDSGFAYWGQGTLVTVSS VL: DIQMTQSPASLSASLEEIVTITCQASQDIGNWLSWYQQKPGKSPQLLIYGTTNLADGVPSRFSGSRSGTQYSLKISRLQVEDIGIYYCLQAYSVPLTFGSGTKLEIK :: 93.5%
AB13 (antibody, V domains shown, Hybridoma monoclonal; also called antibody 13; clone 13) VH: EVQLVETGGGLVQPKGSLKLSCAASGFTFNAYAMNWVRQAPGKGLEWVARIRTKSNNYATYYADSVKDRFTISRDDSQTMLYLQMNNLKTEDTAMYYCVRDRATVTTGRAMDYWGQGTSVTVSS VL: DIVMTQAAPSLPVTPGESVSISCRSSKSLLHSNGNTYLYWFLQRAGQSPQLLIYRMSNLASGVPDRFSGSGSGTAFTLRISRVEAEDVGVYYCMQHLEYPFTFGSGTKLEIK :: -36.8%

// query % Blocking value for entry AB4 (antibody, V domains shown, Hybridoma monoclonal; also called antibody 4; clone 4) VH: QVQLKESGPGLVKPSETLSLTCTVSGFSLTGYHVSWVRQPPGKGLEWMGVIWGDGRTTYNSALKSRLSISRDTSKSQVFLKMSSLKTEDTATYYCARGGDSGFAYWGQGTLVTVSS VL: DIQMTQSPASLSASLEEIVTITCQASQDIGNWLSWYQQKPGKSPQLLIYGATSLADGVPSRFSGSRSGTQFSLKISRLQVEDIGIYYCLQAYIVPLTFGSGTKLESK
100%
